Molecular target: A/Michigan/45/2015 (H1N1) HA (Influenza A virus A/Michigan/45/2015 …, UniProt A0A1J0CXU0, strain)
Assay: BLI
Conditions: both partners purified

| BINDER | binding result |
| --- | --- |
| 047-09 4F04 Fab (Fab, V domains shown) VH: EVQLVESGGGLVQPGGSLRLSCAASGFTFNTYNMNWVRQAPGKGLEWVSYISSSSLSRYYADSVKGRFTISRDNAKNSLFLQMNSLRAEDTAVYYCARGAQAGYSSFFPPTTFWGQGTLVTVSS VL: EIVMTQSPATLSVSPGEGVTLSCRASQSVSSNLAWYQQKPGQAPRLLIYGASTRATGIPARFSGSGSGTEFTLTISSLQSEDFAVYYCQQYYNWPPLTFGGGTKVEIK | binds |
